tested on: KM12 colon; experiment: NCI-60 one-dose screen, 48 h; details: 10 µM unless noted
This is part of a sample that, as a whole, favours compounds with a hit. Of some 83,000 tested, about 20% had one in any assay. The source made the active and inactive calls. The calls were made as follows: active = growth percent below 10; inactive = the rest.
Respond using exactly one of the listed classes: true (1) = active, false (0) = inactive

Compound	Class Name
C=CC(COC(c1ccccc1)(c1ccccc1)c1ccccc1)N(CC)CC (stereo not given)	false (0)
Cc1cc(N2CCCCCC2)nc(NC2CCCC(Nc3ccnc4cc(Cl)ccc34)C2)n1 (stereo not given)	true (1)

Incoming: I'd appreciate the recorded outcome for "CN1CCN(c2nc(NCCCCNc3ccnc4cc(Cl)ccc34)c3ccccc3n2)CC1" from this test.
Outgoing: false (0)

Incoming: I'd appreciate the recorded outcome for "COc1cc2c(cc1O)CC[C@@H]1[C@@H]2CC[C@]2(C)[C@@H](OCCCN(C)C)CC[C@@H]12" from this test.
Outgoing: true (1)

Incoming: I'd appreciate the recorded outcome for "O=C1c2c(O)cc(O)cc2-c2c(-c3ccc(O)cc3)oc3cc(O)cc1c23" from this test.
Outgoing: false (0)
